test system: XF498; assay: NCI tumour cell line growth inhibition, 48 h
Counter-ions that a name gives are not always drawn. The source made the active and inactive calls. Cut-off read from the data, not from the text of the source: active = GI50 up to about 1.1 µM and inactive = higher.
Reported GI50 by item:

These solved cases illustrate the format of a correct answer.
CS(=O)(=O)c1c(N)c2nc(Cl)cn2c2nc3ccccc3nc12    > 100 µM (inactive)
Cc1nccc2c1[nH]c1cc(O)ccc12 [HARMOL HYDROCHLORIDE]    28.4 µM (inactive)
CCCC(C)NC1=C(NC(C)=O)C(=O)c2ccccc2C1=O (stereo not drawn)    > 100 µM (inactive)
COc1ccc2[nH]c3c(c2c1)[C@H](C)C[C@@H]1C(=O)N(c2ccccc2)C(=O)[C@H]31    24.5 µM (inactive)
O=c1c2ccccc2oc2nccnc12    > 100 µM (inactive)

Challenge: Reported GI50 for `CCOC(=O)CN(Cn1cncn1)Cn1cncn1` : what is it?
Response given: 20.4 µM (inactive)

Challenge: Reported GI50 for O=C1CCC2(c3ccc(F)cc3)Nc3cc(Cl)ccc3N12 (stereo not drawn) : what is it?
Response given: 20.1 µM (inactive)

Challenge: Reported GI50 for `O=C(OCc1nc2ccc(Br)cc2c(=O)n1-c1ccccc1)c1ccccc1O` : what is it?
Response given: 51.4 µM (inactive)

Challenge: Reported GI50 for `COC(=O)[C@@]1(C)C(=O)CC[C@@H]1C=O` : what is it?
Response given: > 100 µM (inactive)

Challenge: Reported GI50 for `O=C1C=CC2(C=C1)C[C@H](NC(=O)OCc1ccccc1)C(=O)O2` : what is it?
Response given: 17.8 µM (inactive)

Challenge: Reported GI50 for O=c1[nH]c(=O)n(C2CC(O)C(CO)O2)cc1C#Cc1cc(F)cc(F)c1 (stereo not drawn) : what is it?
Response given: > 100 µM (inactive)

Challenge: Reported GI50 for `COC1=C(C)C(=O)C2=C(C1=O)[C@@H]1[C@@H]3Cc4c(OC(=O)CO)c(C)c(OC)c(O)c4[C@H](CNC(=O)C(C)=O)N3[C@@H](C#N)[C@H](C2)N1C` : what is it?
Response given: < 0.01 µM (active)

Challenge: Reported GI50 for `Cc1cc2c(CC(=O)O)n[nH]c2c(C(=O)O)c1C` : what is it?
Response given: > 100 µM (inactive)
